systemName: Heat shock factor protein 1 (Mus musculus, UniProt P38532)
Sequence (P38532 whole entry): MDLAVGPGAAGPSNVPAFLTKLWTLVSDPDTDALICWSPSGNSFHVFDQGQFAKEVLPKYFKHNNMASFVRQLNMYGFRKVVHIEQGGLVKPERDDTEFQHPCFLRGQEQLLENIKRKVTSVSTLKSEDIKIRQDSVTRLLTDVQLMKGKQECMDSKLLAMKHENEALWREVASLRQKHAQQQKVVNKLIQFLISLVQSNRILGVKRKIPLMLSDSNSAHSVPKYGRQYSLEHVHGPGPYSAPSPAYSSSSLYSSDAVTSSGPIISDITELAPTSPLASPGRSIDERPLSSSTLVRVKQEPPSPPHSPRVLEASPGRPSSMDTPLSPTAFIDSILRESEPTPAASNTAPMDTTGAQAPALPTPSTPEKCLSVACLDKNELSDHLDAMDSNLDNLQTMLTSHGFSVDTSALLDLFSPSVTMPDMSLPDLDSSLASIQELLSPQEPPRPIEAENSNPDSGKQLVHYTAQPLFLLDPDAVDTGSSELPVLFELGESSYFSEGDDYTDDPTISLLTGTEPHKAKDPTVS
test: enhancement of HSF1-driven luciferase signal – cell-based, NIH3T3, luminescence, dose retest, confirmation (AID 435004);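 note: stress induced by proteasome inhibitor MG132 added 30 min after compound; luciferase reporter driven by HSF1 response element in NIH3T3 cells; actives raise luminescence as potentiators of the MG132 stress response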
Type: functional
Active and inactive are the calls of the source.
Classes used: yes (1) for active, no (0) for inactive

> print(dat)
                                    compound  discretelabel
 1  Cc1ccc(-c2[nH]c3ccccc3c2C(C[N+](=O)[O-])c2ccco2)cc1 (configuration not stated)         no (0)
 2  Cc1ccc(S(=O)(=O)N(C)C)cc1NC(=O)COC(=O)c1c(C)noc1C         no (0)
 3  CC(OC(=O)/C=C/c1ccc2ccccc2n1)C(=O)NCc1ccccc1 (configuration not stated)        yes (1)
 4  COC(=O)c1ccc(N(CC(=O)NC2CCCCC2)C(=O)CNC(=O)c2ccco2)cc1         no (0)
 5   CCOC(=O)c1cnc(-c2ccccc2)nc1Oc1ccc(C)cc1         no (0)
 6  COC(=O)c1cc(S(=O)(=O)N2CCN(c3ccc([N+](=O)[O-])cc3)CC2)c[nH]1         no (0)
 7  CCOc1ccc(-n2cc(C(=O)N3CCC(C)CC3)c3cc(OC)c(OC)cc3c2=O)cc1         no (0)
 8  CC(C)Nc1nc(Cl)nc(N(C#N)CN2C(=O)c3ccccc3C2=O)n1        yes (1)
 9  COc1cc(/C=N/N2C(=O)c3ccccc3NC2(C)c2cccc([N+](=O)[O-])c2)cc(Br)c1O (configuration not stated)        yes (1)
10      CC1(C)Cc2nc(NCCN3CCOCC3)c(C#N)cc2CO1         no (0)
11  Cc1ccc(C(=O)NC2CCCN(c3ccc(C(F)(F)F)cn3)C2)cn1 (configuration not stated)         no (0)
12  COc1cccc(C2C(C(N)=O)=C(C)Nc3nc(-c4cccc(Cl)c4)nn32)c1 (configuration not stated)        yes (1)
13  Oc1ccc(-c2nc3cnccn3c2Nc2ccc3c(c2)OCCO3)cc1        yes (1)
14  O=C(CSc1nn(-c2ccc(F)cc2)c(=S)s1)N1CCN(C(=O)c2ccco2)CC1         no (0)
15  Cc1ccc(/C=C/C(=O)Nc2ccc(S(=O)(=O)Nc3cc(C)nc(C)n3)cc2)cc1         no (0)
16  C=CCN1C(=O)NC(=O)/C(=C(/CC)Nc2ccc3c(c2)CCC3)C1=O         no (0)

---

systemName: Cytochrome P450 1A2 (Homo sapiens);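 note: PubChem cytochrome P450 panel assay, CYP1A2 panel member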
Sequence (P05177 whole entry): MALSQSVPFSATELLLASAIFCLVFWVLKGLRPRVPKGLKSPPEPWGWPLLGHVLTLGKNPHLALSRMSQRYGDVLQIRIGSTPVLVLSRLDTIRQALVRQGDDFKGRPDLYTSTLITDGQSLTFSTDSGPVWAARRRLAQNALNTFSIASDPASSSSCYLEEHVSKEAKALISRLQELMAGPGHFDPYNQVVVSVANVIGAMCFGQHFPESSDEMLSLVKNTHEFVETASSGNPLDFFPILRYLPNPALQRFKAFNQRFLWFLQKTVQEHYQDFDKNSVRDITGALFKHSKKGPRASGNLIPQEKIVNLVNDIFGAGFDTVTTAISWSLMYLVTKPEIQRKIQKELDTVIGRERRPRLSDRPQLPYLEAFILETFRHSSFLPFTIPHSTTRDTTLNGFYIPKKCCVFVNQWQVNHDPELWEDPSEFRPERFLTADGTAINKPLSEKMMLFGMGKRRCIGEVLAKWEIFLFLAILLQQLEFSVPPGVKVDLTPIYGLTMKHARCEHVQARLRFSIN
measuredAttribute: AC50

> print(dat)
                        smilesrepresentation            measuredresult
 1  COc1ccc(OC)c(C(=O)CSc2nnc(Cc3cccs3)n2CCc2ccccc2)c1    7.08 µM (inconclusive)
 2  COc1ccc2c(c1O)-c1c(OC)c(OC)cc3c1[C@H](C2)N(C)CC3      10 µM (inconclusive)
 3  O=C(Nc1ccccc1)N[C@H]1C[C@H](C(=O)O)Nc2cc(Cl)cc(Cl)c21    39.8 µM (inconclusive)
 4              CN1CCN(c2ncncc2-c2cccnc2)CC1    25.1 µM (inconclusive)
 5  C[C@@H](C1=C(CCN(C)C)Cc2ccccc21)c1ccccn1      20 µM (inconclusive)
 6  COc1ccc2[nH]cc(CCNc3nc(-c4ccccc4CN(C)C)nc4ccccc34)c2c1    25.1 µM (inconclusive)
 7  NS(=O)(=O)c1ccc(/N=N\c2nc3c(S)ncnc3[nH]2)cc1    6.31 µM (inconclusive)
 8    Cn1c(=O)c2nc(SCc3ccccn3)[nH]c2n(C)c1=S  0.0126 µM (inconclusive)
 9  COc1ccc(S(=O)(=O)N/N=C(/C)c2cccc(NC(=O)c3ccccc3Cl)c2)cc1    14.1 µM (inconclusive)
10  CC(C)C(=O)N1CCN(c2ccccc2NC(=O)c2cccc(Cl)c2)CC1      20 µM (inconclusive)

---

systemName: Large T antigen (Simian virus 40, UniProt P03070);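 note: Confirmatory-stage PubChem screen for compounds that inhibit SV40 T antigen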
Sequence (P03070 whole entry): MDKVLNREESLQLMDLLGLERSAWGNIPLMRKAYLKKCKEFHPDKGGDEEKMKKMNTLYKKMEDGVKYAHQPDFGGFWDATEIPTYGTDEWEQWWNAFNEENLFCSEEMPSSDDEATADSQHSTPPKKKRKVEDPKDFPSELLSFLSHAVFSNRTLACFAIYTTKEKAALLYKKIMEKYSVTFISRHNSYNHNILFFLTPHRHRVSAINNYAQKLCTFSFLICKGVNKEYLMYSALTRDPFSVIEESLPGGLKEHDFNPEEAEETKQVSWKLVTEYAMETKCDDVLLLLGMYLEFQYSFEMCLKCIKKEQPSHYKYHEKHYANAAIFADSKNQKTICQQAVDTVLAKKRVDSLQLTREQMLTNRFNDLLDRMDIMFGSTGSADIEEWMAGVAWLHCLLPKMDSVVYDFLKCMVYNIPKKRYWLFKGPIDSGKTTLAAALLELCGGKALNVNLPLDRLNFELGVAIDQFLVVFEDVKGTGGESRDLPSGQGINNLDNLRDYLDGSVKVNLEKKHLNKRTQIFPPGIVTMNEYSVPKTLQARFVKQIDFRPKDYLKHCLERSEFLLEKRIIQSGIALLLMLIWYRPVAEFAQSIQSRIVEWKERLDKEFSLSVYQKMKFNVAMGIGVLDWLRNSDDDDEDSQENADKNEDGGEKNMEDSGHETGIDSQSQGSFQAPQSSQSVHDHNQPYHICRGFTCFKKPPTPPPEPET
Type: functional, Betapolyomavirus macacae
Calls of active or inactive are those of the source.
measuredAttribute: IC50

> print(dat)
                                   molecule    measuredresult
1  COc1ccc(-c2ccc(OC(=O)NC3CCS(=O)(=O)C3)cc2)cc1 (centres undefined)  9.45 µM (active)
2  Oc1ccc(-c2nc3cnccn3c2Nc2ccc3c(c2)OCCO3)cc1  4.14 µM (active)
3  COc1ccc(CC(=O)N/N=C(\C)CC(=O)Nc2ccc(N(C)C)cc2)cc1OC  10.1 µM (active)
4  O=C(O)CN1C(=O)/C(=C/c2ccc(N3CCCCC3)o2)SC1=S  31.7 µM (active)

---

Items are presented alongside their recorded EC50.
systemName: Luciferin 4-monooxygenase (Photinus pyralis, UniProt P08659)
Sequence (P08659 whole entry): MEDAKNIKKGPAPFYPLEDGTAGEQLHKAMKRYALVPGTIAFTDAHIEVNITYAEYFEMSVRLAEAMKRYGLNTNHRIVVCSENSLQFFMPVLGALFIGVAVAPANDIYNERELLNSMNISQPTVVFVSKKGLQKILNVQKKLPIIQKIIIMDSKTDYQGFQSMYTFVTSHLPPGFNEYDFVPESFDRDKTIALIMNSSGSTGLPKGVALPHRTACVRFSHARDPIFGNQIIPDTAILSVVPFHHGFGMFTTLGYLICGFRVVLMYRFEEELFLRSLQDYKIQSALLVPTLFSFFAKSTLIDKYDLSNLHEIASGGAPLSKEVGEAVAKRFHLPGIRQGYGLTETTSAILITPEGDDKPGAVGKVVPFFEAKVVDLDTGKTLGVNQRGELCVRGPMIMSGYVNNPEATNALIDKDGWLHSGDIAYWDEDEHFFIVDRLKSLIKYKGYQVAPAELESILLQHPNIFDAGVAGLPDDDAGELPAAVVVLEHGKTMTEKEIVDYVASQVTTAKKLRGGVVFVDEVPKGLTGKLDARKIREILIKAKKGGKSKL
test: inhibition of purified Photinus pyralis luciferase – biochemical, luminescence, dose response (AID 1891)
Activity calls are given as the source filed them.
measuredAttribute: EC50

> print(dat)
                                   compound                                systemname         measuredresult
1  Cc1ccc(-c2[nH]c3ccccc3c2C(C[N+](=O)[O-])c2ccco2)cc1 (centres undefined)  Luciferin 4-monooxygenase (Photinus pyralis, UniProt P08659)  > 112 µM (not active)
2  CN(C)c1nc(OCCNC(=O)Nc2ccc(Cl)cc2)nc(N(C)C)n1  Luciferin 4-monooxygenase (Photinus pyralis, UniProt P08659)       21.3 µM (active)
3         COc1ccc(NC(=S)N2CCc3ccccc32)cc1OC  Luciferin 4-monooxygenase (Photinus pyralis, UniProt P08659)  > 112 µM (not active)
4  O=C(Nc1cccc(O)c1)c1cc(-c2ccc3c(c2)OCO3)on1  Luciferin 4-monooxygenase (Photinus pyralis, UniProt P08659)      0.349 µM (active)

---

# key: entry, value: EC50
systemName: UniProt:P10520
Sequence (P10520 whole entry): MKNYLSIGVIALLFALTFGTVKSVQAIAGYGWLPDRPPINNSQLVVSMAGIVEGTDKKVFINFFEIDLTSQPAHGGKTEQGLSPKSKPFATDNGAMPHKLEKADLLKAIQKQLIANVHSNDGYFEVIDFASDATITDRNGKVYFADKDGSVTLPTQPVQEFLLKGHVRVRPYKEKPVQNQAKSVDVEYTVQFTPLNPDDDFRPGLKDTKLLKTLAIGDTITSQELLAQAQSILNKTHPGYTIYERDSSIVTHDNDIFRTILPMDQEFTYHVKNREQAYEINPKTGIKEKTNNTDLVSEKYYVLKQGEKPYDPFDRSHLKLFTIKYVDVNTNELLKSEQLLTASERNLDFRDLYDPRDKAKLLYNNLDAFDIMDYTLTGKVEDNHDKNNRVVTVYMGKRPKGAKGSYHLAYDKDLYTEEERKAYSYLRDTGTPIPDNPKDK
test: viability-normalized secreted streptokinase activity reduction – plasminogen activation absorbance, OD405, dose response (AID 1914);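 note: secreted streptokinase activity via plasminogen activation per viability signal from cell pellet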
Format: functional, Streptococcus pyogenes M1 GAS
The source made the active and inactive calls.
measuredAttribute: EC50

> print(dat)
                                   compound  measuredattribute         measuredresult
1  Cc1noc(C)c1S(=O)(=O)N(CCc1ccccc1)Cc1ccccc1               EC50       21.7 µM (active)
2  O=[N+]([O-])c1cccnc1N1CCC(c2cc(-c3ccc(Cl)cc3)[nH]n2)CC1               EC50       33.3 µM (active)
3    CCNc1nc(Oc2c(Cl)cccc2Cl)cc(C(F)(F)F)n1               EC50       17.6 µM (active)
4  CC1(C)CC(=O)C2=C(C1)N=C1c3ccccc3C(=O)C1C2c1ccc(Cl)cc1 (stereo unspecified)               EC50       14.8 µM (active)
5          Cc1n[nH]c(C)c1CCOc1ccc(C(C)C)cc1               EC50  > 150 µM (not active)
6  CC1=Nc2ccccc2/C1=C\c1nc(-c2ccc(F)cc2)oc1O               EC50       16.6 µM (active)
